# Target desc: yeast α-glucosidase (Saccharomyces cerevisiae, UniProt P53341)
# Sequence (P53341 whole entry): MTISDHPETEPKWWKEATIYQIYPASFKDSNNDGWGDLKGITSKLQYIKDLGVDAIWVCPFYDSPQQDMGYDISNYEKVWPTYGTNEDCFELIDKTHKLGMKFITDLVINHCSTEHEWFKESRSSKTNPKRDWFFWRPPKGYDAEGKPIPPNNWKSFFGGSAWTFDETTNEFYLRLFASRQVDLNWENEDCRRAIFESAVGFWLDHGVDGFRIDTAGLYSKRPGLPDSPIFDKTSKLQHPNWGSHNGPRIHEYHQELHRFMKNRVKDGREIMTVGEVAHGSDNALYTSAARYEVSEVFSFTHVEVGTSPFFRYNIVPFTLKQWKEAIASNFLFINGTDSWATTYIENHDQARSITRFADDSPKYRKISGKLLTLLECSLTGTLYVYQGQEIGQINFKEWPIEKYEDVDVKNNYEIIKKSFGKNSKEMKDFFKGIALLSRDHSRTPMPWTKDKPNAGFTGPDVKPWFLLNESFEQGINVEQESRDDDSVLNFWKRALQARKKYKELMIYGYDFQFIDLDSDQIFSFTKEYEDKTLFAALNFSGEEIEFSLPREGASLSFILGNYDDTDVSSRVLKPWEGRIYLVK
# Method: biochemical
# Assay type: biochemical
# Condition info: read-out: IC50 (anti-α-glucosidase activity)
Measurement type: pIC50
Schema: pIC50 number; meaning minus log10 of the concentration expressed in molar units.

Solved entries (count: 3):
| Molecule | Target desc | Measurement type | Observed measurement |
| --- | --- | --- | --- |
| COc1ccc(NC(=O)Cn2cc(COc3ccc(/C=N/NC(=O)c4cc5ccccc5[nH]4)cc3)nn2)cc1 [Compound 11d] | yeast α-glucosidase (Saccharomyces cerevisiae, UniProt P53341) | pIC50 | 5.20 |
| O=C(Cn1cc(COc2ccc(/C=N/NC(=O)c3cc4ccccc4[nH]3)cc2)nn1)Nc1ccc(Br)cc1 [Compound 11g] | yeast α-glucosidase (Saccharomyces cerevisiae, UniProt P53341) | pIC50 | 4.30 |
| O=C(Cn1cc(COc2ccc(/C=N/NC(=O)c3cc4ccccc4[nH]3)cc2)nn1)Nc1ccccc1 [Compound 11a] | yeast α-glucosidase (Saccharomyces cerevisiae, UniProt P53341) | pIC50 | 4.82 |

**Q:** So what pIC50 did COc1ccc(NC(=O)Cn2cc(COc3ccc(/C=N/NC(=O)c4cc5ccccc5[nH]4)cc3OC)nn2)cc1 [Compound 11j] get with yeast α-glucosidase (Saccharomyces cerevisiae, UniProt P53341)?
**A:** 4.62

**Q:** So what pIC50 did Cc1ccccc1NC(=O)Cn1cc(COc2ccc(/C=N/NC(=O)c3cc4ccccc4[nH]3)cc2)nn1 [Compound 11b] get with yeast α-glucosidase (Saccharomyces cerevisiae, UniProt P53341)?
**A:** 5.05

**Q:** So what pIC50 did COc1cc(/C=N/NC(=O)c2cc3ccccc3[nH]2)ccc1OCc1cn(CC(=O)Nc2ccc(Cl)cc2)nn1 [Compound 11k] get with yeast α-glucosidase (Saccharomyces cerevisiae, UniProt P53341)?
**A:** 4.50

* * *

# Target desc: yeast α-glucosidase (Saccharomyces cerevisiae)
Measurement type: pKi
Schema: pKi number; meaning minus log10 of the concentration expressed in molar units.

Solved entries (count: 2):
| Compound | Observed measurement |
| --- | --- |
| COc1cc(/C=N/NC(=O)c2cc3ccccc3[nH]2)ccc1OCc1cn(CC(=O)Nc2ccc(Br)cc2)nn1 [Compound 11n] | 5.08 |
| COc1ccc(NC(=O)Cn2cc(COc3ccc(/C=N/NC(=O)c4cc5ccccc5[nH]4)cc3)nn2)cc1 [Compound 11d] | 5.20 |

**Q:** So what pKi did Cc1ccccc1NC(=O)Cn1cc(COc2ccc(/C=N/NC(=O)c3cc4ccccc4[nH]3)cc2)nn1 [Compound 11b] get with yeast α-glucosidase (Saccharomyces cerevisiae)?
**A:** 5.07

* * *

Measured melting point by item

| Compound | melting point |
| --- | --- |
| O=C(Cn1cc(COc2ccc(/C=N/NC(=O)c3cc4ccccc4[nH]3)cc2)nn1)Nc1ccc(Cl)cc1 [Compound 11f] | 174 to 176 °C |
| COc1cc(/C=N/NC(=O)c2cc3ccccc3[nH]2)ccc1OCc1cn(CC(=O)Nc2cccc([N+](=O)[O-])c2Cl)nn1 [Compound 11o] | > 250 °C |
| O=C(Cn1cc(COc2ccc(/C=N/NC(=O)c3cc4ccccc4[nH]3)cc2)nn1)Nc1ccccc1Cl [Compound 11e] | > 250 °C |
| COc1cc(/C=N/NC(=O)c2cc3ccccc3[nH]2)ccc1OCc1cn(CC(=O)Nc2ccc(Cl)cc2)nn1 [Compound 11k] | 184 to 186 °C |
| O=C(Cn1cc(COc2ccc(/C=N/NC(=O)c3cc4ccccc4[nH]3)cc2)nn1)Nc1ccccc1 [Compound 11a] | 194 to 196 °C |

**Q:** Given the compound Cc1cc(NC(=O)Cn2cc(COc3ccc(/C=N/NC(=O)c4cc5ccccc5[nH]4)cc3)nn2)ccc1[N+](=O)[O-] [Compound 11h] , what is its reported melting point?
**A:** 200 to 202 °C

**Q:** Given the compound COc1cc(/C=N/NC(=O)c2cc3ccccc3[nH]2)ccc1OCc1cn(CC(=O)Nc2cc(Cl)cc(Cl)c2)nn1 [Compound 11m] , what is its reported melting point?
**A:** 247 to 249 °C
